Listed here are binders together with their documented kon.
- test.target: T1, human TfR extracellular domain with N-terminal His tag (human, UniProt P02786 89-760)
- T1 construct: Biotinylated in some assays; also called huTfR; HuTfR
- T1 sequence (P02786 89-760 G142S): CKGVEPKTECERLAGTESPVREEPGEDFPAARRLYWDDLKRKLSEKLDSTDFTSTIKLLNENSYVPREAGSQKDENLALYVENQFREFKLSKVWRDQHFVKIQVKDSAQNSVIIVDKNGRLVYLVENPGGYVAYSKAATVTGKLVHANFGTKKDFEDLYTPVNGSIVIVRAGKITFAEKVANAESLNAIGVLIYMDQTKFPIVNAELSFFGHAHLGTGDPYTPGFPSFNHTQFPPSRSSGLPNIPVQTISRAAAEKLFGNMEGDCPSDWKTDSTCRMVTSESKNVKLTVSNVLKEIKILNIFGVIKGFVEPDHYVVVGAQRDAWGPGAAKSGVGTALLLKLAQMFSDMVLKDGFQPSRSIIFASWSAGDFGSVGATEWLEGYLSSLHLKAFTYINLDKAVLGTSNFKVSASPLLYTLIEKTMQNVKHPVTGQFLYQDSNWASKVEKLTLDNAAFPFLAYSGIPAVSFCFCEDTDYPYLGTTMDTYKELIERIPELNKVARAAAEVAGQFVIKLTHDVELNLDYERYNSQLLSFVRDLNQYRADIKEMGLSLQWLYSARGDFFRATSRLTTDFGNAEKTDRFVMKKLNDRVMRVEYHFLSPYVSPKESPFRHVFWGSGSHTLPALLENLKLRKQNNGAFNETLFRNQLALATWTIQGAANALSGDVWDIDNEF
- protocol.summary: SPR, TfR captured by anti-His, Fab injected;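 further: single cycle kinetics with a Fab dilution series, fitted by a one-to-one Langmuir model or a steady state model, KD taken as koff over kon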

binder	kon (M⁻¹ s⁻¹)
Hu7A4.v5.Fab (Fab, V domains shown, Fab) VH: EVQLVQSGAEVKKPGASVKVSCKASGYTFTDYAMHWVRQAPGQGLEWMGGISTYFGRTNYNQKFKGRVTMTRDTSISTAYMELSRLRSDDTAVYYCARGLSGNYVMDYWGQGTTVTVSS VL: DIVMTQSPDSLAVSLGERATINCRASESVDSYGNSFMHWYQQKPGQPPKLLIYRASNLESGIPDRFSGSGSGTDFTLTISSLQAEDVAVYYCQQSNEGPPTFGQGTKLEIK	2.24e+06
Hu15G11.v1.Fab (Fab, V domains shown, Fab) VH: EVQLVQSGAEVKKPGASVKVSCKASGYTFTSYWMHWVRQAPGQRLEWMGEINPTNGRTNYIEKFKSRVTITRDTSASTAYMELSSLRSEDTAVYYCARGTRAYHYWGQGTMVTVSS VL: DIQMTQSPSSLSASVGDRVTITCRASDNLYSNLAWYQQKPGKAPKLLLYDATNLADGVPSRFSGSGSGTDYTLTISSLQPEDFATYYCQHFWGTPLTFGQGTKVEIK	638000
Hu7A4.v8.Fab (Fab, V domains shown, Fab) VH: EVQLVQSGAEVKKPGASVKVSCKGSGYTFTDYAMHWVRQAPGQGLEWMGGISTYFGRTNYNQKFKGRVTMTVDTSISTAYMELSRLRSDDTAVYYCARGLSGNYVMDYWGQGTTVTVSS VL: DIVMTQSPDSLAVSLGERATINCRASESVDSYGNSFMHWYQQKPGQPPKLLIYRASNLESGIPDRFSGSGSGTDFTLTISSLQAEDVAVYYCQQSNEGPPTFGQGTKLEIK	928000
Hu7A4.v12.Fab (Fab, V domains shown, Fab) VH: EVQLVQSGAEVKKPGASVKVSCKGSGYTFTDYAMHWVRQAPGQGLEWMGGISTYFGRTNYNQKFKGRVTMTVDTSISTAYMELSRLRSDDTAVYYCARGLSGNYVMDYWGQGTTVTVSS VL: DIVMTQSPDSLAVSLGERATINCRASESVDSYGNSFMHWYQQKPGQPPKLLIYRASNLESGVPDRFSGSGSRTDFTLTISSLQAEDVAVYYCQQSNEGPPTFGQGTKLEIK	3.32e+06
Hu16F6.v4.Fab (Fab, V domains shown, Fab) VH: EVQLVESGPGLVKPSETLSLTCTVSGNSITSEYAWNWIRQPPGKGLEWIGYISYSGTTSYNPSLKSRVTISRDTSKNQLSLKLSSVTAADTAVYYCARYGYGNPATRYFDVWGQGTLVTVSS VL: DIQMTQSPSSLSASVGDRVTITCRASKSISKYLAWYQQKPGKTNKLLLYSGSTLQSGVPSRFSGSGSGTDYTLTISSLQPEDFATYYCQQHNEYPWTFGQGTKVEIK	131000
Hu7A4.v9.Fab (Fab, V domains shown, Fab) VH: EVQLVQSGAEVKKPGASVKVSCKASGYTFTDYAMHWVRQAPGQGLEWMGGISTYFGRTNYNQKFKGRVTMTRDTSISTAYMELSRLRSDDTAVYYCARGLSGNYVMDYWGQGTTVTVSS VL: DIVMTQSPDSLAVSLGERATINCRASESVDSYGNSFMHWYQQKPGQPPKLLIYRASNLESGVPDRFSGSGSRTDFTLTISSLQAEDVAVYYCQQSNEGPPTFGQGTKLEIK	1.71e+06
Hu15G11.v3.Fab (Fab, V domains shown, Fab) VH: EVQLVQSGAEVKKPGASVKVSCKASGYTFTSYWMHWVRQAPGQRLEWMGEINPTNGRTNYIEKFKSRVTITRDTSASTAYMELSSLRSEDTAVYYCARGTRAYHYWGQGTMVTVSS VL: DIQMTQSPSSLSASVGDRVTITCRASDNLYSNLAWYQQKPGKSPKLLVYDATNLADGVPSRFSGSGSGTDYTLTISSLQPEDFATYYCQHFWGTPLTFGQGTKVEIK	642000
hu7A4.v15.Fab (Fab, V domains shown, Fab) VH: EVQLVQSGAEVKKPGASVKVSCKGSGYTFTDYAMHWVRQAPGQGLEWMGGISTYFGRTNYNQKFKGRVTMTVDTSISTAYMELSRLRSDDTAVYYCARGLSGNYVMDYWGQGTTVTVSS VL: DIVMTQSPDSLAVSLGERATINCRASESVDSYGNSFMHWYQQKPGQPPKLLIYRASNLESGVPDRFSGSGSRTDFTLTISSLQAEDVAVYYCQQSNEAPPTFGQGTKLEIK	910000
Mu7A4.Fab (Fab, V domains shown, Fab; also called mouse 7A4 Fab) VH: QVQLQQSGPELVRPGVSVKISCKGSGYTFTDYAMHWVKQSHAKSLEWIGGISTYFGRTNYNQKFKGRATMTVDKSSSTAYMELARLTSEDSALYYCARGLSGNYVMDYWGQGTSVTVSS VL: DIVLTQSPASLAVSLGQRATISCRASESVDDYGNSFMHWYQQKPGQPPKLLIYRASNLESGIPARFSGSGSRTDFTLTINPVEADDVATYYCQQSNEAPPTFGGGTKLEIR	1.65e+06
Mu16F6.Fab (Fab, V domains shown, Fab; also called mouse 16F6 Fab) VH: DVQLQESGPGLVKPSQSLSLTCTVTGNSITSEYAWNWIRQFPGNKLEWMGYISYSGTTSYNPSLKSRISITRDTSKNQLFLQLNSVTTEDTATYFCARYGYGNPATRYFDVWGAGTTVTVSS VL: DVQITQSPSYLTASPGETITINCRASKSISKYLAWYQEKPGKTNKLLIYSGSTLQSGIPSRFSGSGSGTDFTLTISNLEPEDFAMYYCQQHNEYPWTFGGGTKLEIK	60700

The measured values listed here are drawn from patent US20180057604A1.
